Values from patent US20250353873A1

system: human APOE RNA; assay: Dose-dependent inhibition of human APOE RNA in HepG2 cells, electroporation, 50,000 cells per well, RT-PCR normalized to GAPDH (Example 4, Tables 8-10); type: cell-based; details: 512 nM; HepG2, electroporation, 16-hour treatment
Strand notation (5' to 3'): a small letter for the sugar, then the base; units joined by * are phosphorothioate-linked, units joined directly phosphodiester-linked; [ ] holds rarer units or linkages, { } end groups; capitals alone tell only the bases. [ms] = mesyl phosphoramidate linkage; e = 2'-O-(2-methoxyethyl) (MOE); k = constrained ethyl (cEt); [5mC] = 5-methylcytosine; d = 2'-deoxy (DNA)
Provide the reported APOE RNA (% UTC) of each item.
Answers are plain numbers, in % UTC.

substance: 1757585 (eT*eTeGkGkT*dG*dA*dA*dT*d[5mC]*dT*dT*dT*dA*dT*kTeAeA*eA*e[5mC]; antisense) [Compound 1757585]
assay.system: human APOE RNA
APOE RNA (% UTC): 53

substance: 1757586 (eT*eTeGeGkT*dG*dA*dA*dT*d[5mC]*dT*dT*dT*dA*dT*kTkAeA*eA*e[5mC]; antisense) [Compound 1757586]
assay.system: human APOE RNA
APOE RNA (% UTC): 34

substance: 1757574 (eA*e[5mC]eTeT*eG*eG*dT*dG[ms]dA[ms]dA[ms]dT*d[5mC]*dT*dT*dT*dA[ms]kT*kT*eA*eA; antisense) [Compound 1757574]
assay.system: human APOE RNA
APOE RNA (% UTC): 66

substance: 1757565 (eA*e[5mC]eTeTkG*dG*dT*dG*dA*dA*dT*d[5mC]*dT*dT*dT*eAeTeT*eA*eA; antisense) [Compound 1757565]
assay.system: human APOE RNA
APOE RNA (% UTC): 64

substance: 1766537 (eT*eTeGeGeT*dG[ms]dA[ms]dA[ms]dT*d[5mC]*dT*dT*dT[ms]dA*dT*kTkAeA*eA*e[5mC]; antisense) [Compound 1766537]
assay.system: human APOE RNA
APOE RNA (% UTC): 85

Continue with the next substance.
Req: Return reported APOE RNA (% UTC). Input substance: 1757571 (eA*e[5mC]eTeT*eG*kG*dT*dG[ms]dA[ms]dA[ms]dT*d[5mC]*dT*dT*dT*dA[ms]eT*eT*eA*eA; antisense) [Compound 1757571]
Resp: 38
